Provide the reported pIC50 of each item.
molecular target: PDGFRB (Homo sapiens, UniProt P09619); construct: Kinases are expressed as either kinase domains or full length constructs; made in house; experiment: Kinase inhibition assay (33P transfer), PDGFRB; format: biochemical; conditions: read-out: PDGFRB-1
Sequence (P09619 33-1106, species assumed): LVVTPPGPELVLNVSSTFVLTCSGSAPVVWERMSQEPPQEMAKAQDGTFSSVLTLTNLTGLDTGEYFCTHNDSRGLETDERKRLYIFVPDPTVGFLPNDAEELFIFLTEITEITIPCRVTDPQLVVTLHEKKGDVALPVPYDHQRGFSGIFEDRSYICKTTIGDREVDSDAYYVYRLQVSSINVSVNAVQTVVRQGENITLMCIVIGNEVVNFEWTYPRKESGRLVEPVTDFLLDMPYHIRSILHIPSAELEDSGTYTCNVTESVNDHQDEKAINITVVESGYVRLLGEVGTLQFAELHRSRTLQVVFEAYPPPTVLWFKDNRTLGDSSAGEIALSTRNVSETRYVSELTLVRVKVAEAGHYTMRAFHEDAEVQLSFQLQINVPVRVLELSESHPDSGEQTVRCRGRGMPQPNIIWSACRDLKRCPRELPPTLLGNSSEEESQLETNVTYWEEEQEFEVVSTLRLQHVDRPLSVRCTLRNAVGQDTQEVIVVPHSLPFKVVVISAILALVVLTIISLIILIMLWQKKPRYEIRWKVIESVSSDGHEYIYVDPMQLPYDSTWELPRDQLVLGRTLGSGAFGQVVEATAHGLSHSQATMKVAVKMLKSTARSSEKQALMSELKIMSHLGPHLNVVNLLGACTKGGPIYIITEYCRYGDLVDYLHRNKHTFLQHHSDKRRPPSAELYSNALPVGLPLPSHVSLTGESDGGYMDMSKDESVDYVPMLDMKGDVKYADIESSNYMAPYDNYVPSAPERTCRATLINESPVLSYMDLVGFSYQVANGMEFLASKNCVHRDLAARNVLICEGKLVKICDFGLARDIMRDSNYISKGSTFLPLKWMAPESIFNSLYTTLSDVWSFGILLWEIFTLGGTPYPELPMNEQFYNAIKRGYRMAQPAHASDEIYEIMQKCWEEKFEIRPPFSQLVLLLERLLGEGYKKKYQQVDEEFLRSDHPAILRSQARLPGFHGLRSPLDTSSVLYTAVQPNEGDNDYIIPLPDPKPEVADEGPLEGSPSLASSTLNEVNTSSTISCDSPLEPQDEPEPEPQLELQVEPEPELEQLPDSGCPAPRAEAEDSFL
pIC50: −log10 of the molar value.

Answer with the recorded pIC50 of CN(c1cccc(Cl)c1)c1ncnc(NCC2CCCO2)n1 (stereo not shown) only. < 4.85

Recall and state the measured pIC50 for COc1cc(Nc2ncnc(-c3cccnc3Nc3cccc(C(N)=O)c3)n2)cc(OC)c1OC . > 6.07

Let me know recorded pIC50 for COc1cc(Nc2ncnc(-n3c(NCc4ccccn4)nc4ccccc43)n2)cc(OC)c1OC , thanks. > 6.08

Consider the compound c1ccc(Cn2ncc3cc(Nc4ncnc(Nc5ccc(N6CCCCC6)cc5)n4)ccc32)cc1 and give its recorded pIC50. < 5.02

Give the reported pIC50 for this compound. CN(c1cccc(Cl)c1)c1ncnc(Nc2ncccn2)n1 < 4.84

Look up and report measured pIC50 for this entry: CN(c1cccc(Cl)c1)c1ncnc(Nc2ccc(F)c(Cl)c2)n1 < 4.91

// Input: Cc1ccc2c(c1)CCCN2c1ncnc(Nc2ccc3ncsc3c2)n1 . Output its pIC50 only. > 5.97

Please look at this compound and report its pIC50: c1cc(Cn2ccnn2)cc(Nc2ncnc(-n3c(Nc4ccc5[nH]ccc5c4)nc4ccccc43)n2)c1 > 6.10

Provide only the value of recorded pIC50 for COc1cc(Nc2ncnc(-n3ccnc3Cl)n2)cc(OC)c1OC 5.18 to 5.96

Supply recorded pIC50 for COc1ccc(Nc2ncnc(N3CCCc4ccc(C(F)(F)F)cc43)n2)cc1OC here. 5.09 to 5.25

Tell me pIC50 reported for COc1cc(Nc2ncnc(Nc3cccc(CC(=O)O)c3)n2)cc(OC)c1OC 5.23 to 6.01

Annotate the compound COc1cc(Nc2ncnc(NC3CC3c3ccccc3)n2)cc(OC)c1OCCN1CCOCC1 (stereo not shown) with its measured pIC50. 5.31 to 6.09

Complete the entry with pIC50 for Fc1ccc(Nc2ncnc(Nc3ccc4cn[nH]c4c3)n2)cc1Cl < 4.90

Tell me measured pIC50 for C=CCNC(=O)c1ccc(-c2cc(Nc3ncnc(Nc4cc(OC)c(OC)c(OC)c4)n3)[nH]n2)cc1 please. < 5.05

Give pIC50 for FC(F)(F)Oc1cccc(Nc2ncnc(Nc3ccc4c(cnn4Cc4ccccc4)c3)n2)c1 < 5.03

Identify measured pIC50 associated with COc1cc(Nc2ncnc(-c3cccnc3Nc3cccc(C(F)(F)F)c3)n2)cc(OC)c1OC < 5.04

Provide pIC50 value for the following compound: COc1ccc(Nc2ncnc(NCCC#N)n2)cc1OC < 4.82

Tell me its pIC50 given O=C(O)Cc1cccc(Nc2ncnc(-n3c(NCc4ccccn4)nc4ccccc43)n2)c1 as the entry. 5.28 to 6.05

Input Clc1cccc(Nc2ncnc(Nc3cc(-c4ccccc4)n[nH]3)n2)c1 , output reported pIC50. 4.91 to 5.02

Quick one: give measured pIC50 for COC(=O)c1ccc(-c2cc(Nc3ncnc(NCc4cccnc4)n3)[nH]n2)cc1 4.95 to 5.06

Item O=C(O)CNC(=O)c1ccc(Nc2ncnc(Nc3cc(-c4ccco4)[nH]n3)n2)cc1 : provide pIC50 > 6.02

Write down pIC50 measured for item CNC(=O)c1cccc(Nc2ncnc(Nc3cc(-c4ccco4)[nH]n3)n2)c1 5.20 to 5.97

Please look at this compound and report its pIC50: CN(c1cccc(Cl)c1)c1ncnc(Nc2ccc(CC(=O)O)cc2)n1 < 4.91

Determine its reported pIC50: CN(c1cccc(Cl)c1)c1ncnc(Nc2ccncc2)n1 5.12 to 5.89

State its pIC50: COc1cc(Nc2ncnc(Nc3ccc4c(cnn4C)c3)n2)cc(OC)c1OC > 6.01

Tell me measured pIC50 for c1ccc(CNc2nc3ccccc3n2-c2ncnc(Nc3cccc(Cn4ccnn4)c3)n2)nc1 please. > 6.08

Quickly give me recorded pIC50 for COc1ccc(Nc2ncnc(N(C)C3CCCCC3)n2)cc1OC 5.16 to 5.93

Check the records and state pIC50 for COc1cc(Nc2ncnc(-n3c(NC4CCCc5ccccc54)nc4ccccc43)n2)cc(OC)c1OC (stereo not shown) 5.17 to 5.34

Read off the recorded pIC50 for CCN(c1cccc(C)c1)c1ncnc(Nc2cc(OC)c(OC)c(OC)c2)n1 5.22 to 6.00

Quote pIC50 reported for COc1cc(Nc2ncnc(Nc3cccc(CN4CCN(C)CC4)c3)n2)cc(OC)c1OC please. < 5.01

Item COc1cc(Nc2ncnc(-c3cccnc3NC(C)c3ccccc3)n2)cc(OC)c1OC (stereo not shown) : provide pIC50 > 6.06

Look up and report measured pIC50 for this entry: COc1ccc(CNc2nc3ccccc3n2-c2ncnc(Nc3cccc(C(=O)O)c3)n2)cc1 5.29 to 6.07

Look up and state reported pIC50 for COc1ccc(Nc2ncnc(N(C)c3cccc(Cl)c3)n2)cc1 < 4.88

Give the reported value of pIC50 for this record: COc1cc(Nc2ncnc(N(C)c3ccc(F)c(Cl)c3)n2)cc(OC)c1OC 5.24 to 6.02

The reported measurements were obtained from patent US7074789B2.
